Tested on: EKVX NSCLC
Assay: NCI tumour cell line growth inhibition, 48 h
Recorded measurements of GI50, one per entry

1. NC(=O)c1cccnc1
> 100 µM

Name the recorded GI50 for CC(=O)c1ccc2c(c1)N(CCCN1CCN(CCO)CC1)c1ccccc1S2 .
4.83 µM

Name the recorded GI50 for O=C(CC1(O)C(=O)Nc2ccc(F)cc21)c1ccc(C(=O)NCC2CCC3(CC2)OOC2(CCCCC2)OO3)cc1 (stereo not drawn) .
1.87 µM

---

System: U251 CNS
Assay: NCI tumour cell line growth inhibition, 48 h
Recorded measurements of TGI, one per entry
Give the value in µM but do not write µM after it.

// known answers, use as guide
1. CC(O)c1cc2c(s1)C(=O)c1c(C(C)O)csc1C2=O (stereo not given)
4.32
2. O=C1CCCC/C1=C\c1ccc([N+](=O)[O-])cc1
29.6
3. O=C(N=Nc1ccc(Cl)cc1Cl)NNc1ccc(Cl)cc1Cl
36.2
4. N#Cc1c(Cl)c2cccnc2n2c1nc1ccccc12
10.3
5. Cc1ccc(S(=O)C[C@](NC(=O)OCc2ccccc2)(Sc2ccccc2)C(F)F)cc1 (stereo not given in full)
35.5
6. CC(=O)O[C@H]1CC[C@@]2(C)C(=CC[C@@H]3[C@@H]2CC[C@]2(C)c4c(n[nH]c4C)C[C@@H]32)C1
31.3
7. Cc1cc(CCl)c(C)cc1CCl
4.27
8. COc1ccc(/C=C2\CCC(CCN(C)C)(C3=CCCC3)C2=O)cc1 (stereo not given)
30.4

Name the recorded TGI for CCc1ccc2[nH]c(O)c(C3=Nc4ccccc4C3=O)c2c1 .
38.2

Name the recorded TGI for CCSc1ccc([C@@H]2[C@@H](O)C(=O)N2c2cc(OC)c(OC)c(OC)c2)cc1 .
16

Name the recorded TGI for COc1cc(C(=O)Oc2c(C(C)=O)sc3c2c(=O)n(-c2ccccc2)c(=S)n3-c2ccccc2)cc(OC)c1OC .
77.8

Name the recorded TGI for O=[N+]([O-])C(/C(Cl)=C(\Cl)Br)=C(/Cl)SCc1ccccc1 .
18.5

Name the recorded TGI for CCOC(=O)C(=CNc1ccc(N(C2=NCC(C)S2)c2ccc(F)c(Cl)c2)cc1)C(=O)OCC (stereo not given) .
48.1

Name the recorded TGI for CC1=Nc2ccccc2SC(c2c(Cl)cccc2Cl)C1 (stereo not given) .
1.14
